Quick list: TGI per entry.
# System: SR leukemia
# assay.explanation: NCI tumour cell line growth inhibition, 48 h
Hi! Could you send only the number? It should be in µM, unit omitted.

Some solved entries appear below for comparison.
CN(C)CCNC(=O)NC[C@H]1CC[C@@H]2[C@H](O1)c1cc(C(F)(F)F)ccc1N[C@H]2c1ccccc1: 15.1
Cc1ccc(S(=O)(=O)N2CCc3ccc(O)c4c3C2Cc2ccc3c(c2-4)OCO3)cc1 (stereo not given): 5.98

Moving on to another compound below.
Lab note: COc1cc(/C=C/C(=O)c2c(C)nc3ccccc3c2C)ccc1OCCCN1CCN(C(=O)c2ccco2)CC1 gave TGI of 7.47

----------
# System: A498 renal
# assay.explanation: NCI tumour cell line growth inhibition, 48 h
Property: TGI; scope: individual compounds

C/C(=N/Nc1nc(C)cc(=O)[nH]1)C(=O)O: > 100 µM
c1ccc([P+](CCCCCC[P+](c2ccccc2)(c2ccccc2)c2ccccc2)(c2ccccc2)c2ccccc2)cc1: > 100 µM
Cn1c(N=P(c2ccccc2)(c2ccccc2)c2ccccc2)c([N+](=O)[O-])c(=O)n(C)c1=O: > 100 µM
CCc1cccc(C)c1NC(=S)NC(=O)c1ccccc1C(=O)NC(=S)Nc1c(C)cccc1CC: > 100 µM

TGI in this record for Cc1ccc(S(=O)(=O)N2CCc3ccc(O)c4c3C2Cc2ccc3c(c2-4)OCO3)cc1 (configuration not stated) : 7.09 µM

For COc1cccc2c1C(=O)c1c(O)c3c(c(O)c1C2=O)C[C@@](O)(C(=O)CO)CC3OC1CC(NCCCC(OC(C)=O)OC(C)=O)C(O)C(C)O1 (some centres not stated) the compound record lists TGI as 0.00609 µM

Noted for O=C1c2ccccc2C(=O)c2c(NCCCN3CCOCC3)ccc(NCCCN3CCOCC3)c21 : its TGI reads 25.2 µM

Memo: Cc1cc(Cl)ccc1NC(=O)C(=O)C(C(=O)c1ccccc1)C1OC(=O)c2ccccc21 (configuration not stated) , reported TGI: > 100 µM

TGI reported for this compound C1CN2CCNCCN(CCN1)CC2 : > 100 µM

Reported TGI of C#CC1NC(=O)C1N(CC)CC (configuration not stated) : > 100 µM

Reported TGI of Cc1ccc(S(=O)(=O)Nc2ccc(-c3cc(-c4cccc(F)c4)c(C#N)c(N)n3)cc2)cc1 : 16.2 µM

For O=c1c2c(c1=O)-c1ccccc1CN2 the compound record lists TGI as > 100 µM

----------
# Test system: OVCAR-8 ovarian
# assay.explanation: NCI tumour cell line growth inhibition, 48 h
observable: TGI

// worked examples, TGI included
C=CCc1c(O)c(C(=O)/C=C/c2ccccc2)c(OC)c2ccoc12: 13.6 µM
Cc1cccc2c1c(=O)c1c(O)cc(O)cc1n2C: > 100 µM
C[CH2][Sn]([CH2]C)([O]C(=O)c1ccc(OC)c(OC)c1OC)[O]C(=O)c1ccc(OC)c(OC)c1OC: > 100 µM

// switching to the query compound
The reported TGI of the compound O=c1oc2ccc([N+](=O)[O-])cc2cc1Br was > 100 µM

----------
TGI values by entry
# Tested on: RPMI-8226 leukemia
# assay.explanation: NCI tumour cell line growth inhibition, 48 h
Field: numeric (µM). Do not append units.

C[CH2][Sn]([CH2]C)([O]C(=O)c1ccc(OC)c(OC)c1OC)[O]C(=O)c1ccc(OC)c(OC)c1OC: 72.2

Turning to the following compound.
// TGI lookup, compound = CC(C)[C@@H](C)[C@@]1(C)C[C@@H]1[C@@H](C)[C@H]1CC[C@@H]([C@@H]2CC=C3C[C@@H](O)CC[C@]3(C)C2=O)[C@]1(C)CCO , result: 52

----------
# Tested on: HCC-2998 colon
# assay.explanation: NCI tumour cell line growth inhibition, 48 h; in the data active means GI50 below about 0.43 µM; inactive means the rest
Answer with one of the outcomes active, inactive

Cc1ccc(S(=O)(=O)Nc2ccc(-c3cc(-c4cccc(F)c4)c(C#N)c(N)n3)cc2)cc1: inactive

Exam item: Please indicate how the test categorized CN(C)CCOC(=O)Nc1nc2ccc(Sc3ccccc3)cc2[nH]1 .
Marked response: inactive

Exam item: For this compound, state the assay outcome: CCC[CH2][Pb]([Cl])([CH2]CCC)[CH2]CCC
Marked response: active

Exam item: Assay result, entry Cn1c2ccccc2c2c(=O)n(CCCC(=O)OC(=NC3CCCCC3)NC3CCCCC3)c3c(-c4ccccc4)nnn3c21 — outcome?
Marked response: inactive

Exam item: Status in this test for CN(C)c1ccc(N=C2C=CC(=O)c3ccccc32)cc1 ?
Marked response: inactive

Exam item: Query: recorded result category for COc1ccc(/C=C2\c3cc(OC)c(OC)c(OC)c3CC[C@@H]2O)cc1F in this test
Marked response: inactive

Exam item: Which outcome was entered for the compound COCc1c(-c2ccc(NC(=O)Nc3cc(C(F)(F)F)ccc3F)c(F)c2)c2c(N)ncnn2c1CN1CCOCC1 in this test?
Marked response: inactive

Exam item: Query: recorded result category for CN1CCN(Cc2cc(NC(=O)c3cccc(C#Cc4cccc5[nH]nc(N)c45)c3)cc(C(F)(F)F)c2)CC1 in this test
Marked response: inactive

Exam item: Kindly provide the recorded test outcome for the following compound: Cc1cc(=O)oc2cc(OC/C=C3\CCC(=O)O3)ccc12
Marked response: inactive

----------
# Test system: COLO 205 colon
# assay.explanation: NCI tumour cell line growth inhibition, 48 h; in the data active means GI50 below about 0.43 µM; inactive means the rest
Please state which outcome applies, choosing from T = active, F = inactive

Exam item: Per the records of this test, what outcome belongs to CN1CCN(Cc2cc(NC(=O)c3cccc(C#Cc4cccc5[nH]nc(N)c45)c3)cc(C(F)(F)F)c2)CC1 ?
Marked response: F

Exam item: Per the assay record, what outcome was assigned to COc1ccc2c(c1)C(=O)c1c-2c(Nc2cccc(C(C)=O)c2)nc2ccccc12 ?
Marked response: F

Exam item: Test call for this compound, please: COc1cccc(Nc2nccc(-c3cnn4ncccc34)n2)c1
Marked response: T

Exam item: Any idea what this test logged for CC1(C)N=C(N)N=C(N)N1c1cccc(Br)c1 ?
Marked response: F

Exam item: Which result was noted for this compound in the test: Nc1ncnc2c1ccn2[C@@H]1O[C@H]([C@H](O)c2ccc(Cl)c(F)c2)[C@@H](O)[C@H]1O
Marked response: F

Exam item: How did this test come out for N#CC1C(=O)NC(c2ccccc2[N+](=O)[O-])c2sc3c(F)cccc3c21 (centres undefined) ?
Marked response: F

----------
# Test system: RXF 393 renal
# assay.explanation: NCI tumour cell line growth inhibition, 48 h
Listed compounds paired with reported TGI

Cc1cccc2c1c(=O)c1c(O)cc(O)cc1n2C: > 100 µM

What the record says about C=C1Cc2cc(OC)c(OC)c(OC)c2-c2ccc(SC)c(=O)cc21 : TGI is 10.4 µM

Documented TGI of COc1cccc(NC(=O)C(=O)C2C=CCS2(=O)=O)c1 (stereo unspecified) : > 100 µM

----------
# System: MDA-N
# assay.explanation: NCI tumour cell line growth inhibition, 48 h
Known TGI of a selection of molecules

Check out these entries, answers already filled in.
CC1=NN(c2nc(N)nc(/C(C#N)=C\c3cccc([N+](=O)[O-])c3)n2)C(C)(C)C1: > 33.3 µM
Cc1ccc(N2C(N)=C(C#N)C(C#N)(C#N)C2c2ccccc2)cc1 (stereo not drawn): 12 µM
COC1CC(O[C@H]2CC[C@@]3(C)[C@@H](CC[C@]4(O)[C@@H]3CC[C@]3(C)[C@@H](C(C)=O)[C@H](OC(=O)CC(C)C)[C@@H](OC(=O)c5ccccc5)[C@@]34O)C2)OC(C)C1OC1CC(OC)C(OC2OC(C)C(O)C(OC)C2O)C(C)O1 (stereo partly drawn): > 25 µM
Cn1c(N=P(c2ccccc2)(c2ccccc2)c2ccccc2)c([N+](=O)[O-])c(=O)n(C)c1=O: > 100 µM
O=c1oc2ccc([N+](=O)[O-])cc2cc1Br: > 100 µM
C=CC1(C)OC2(CCN(C(=O)OCC)CC2)OC1C (stereo not drawn): > 100 µM
Cc1cc2nc(N3C(=O)/C(=C/c4ccc(N(C)C)cc4)N=C3c3ccccc3)sc2cc1C: 33.8 µM
O=C1CC2SC(COCc3ccccc3)(CCN2Cc2ccccc2)C1 (stereo not drawn): > 100 µM

molecule CCCNC(=O)N1CC(CN2CCN(c3ccccc3)CC2)O/C1=N/C(=O)Nc1ccccc1 (stereo not drawn) , TGI observed: > 100 µM

Please fill in: TGI reported for [CH3][Sn]([CH3])([CH3])[O][N+](=O)[O-] = > 10 µM

The measured TGI associated with CC(=O)/C(C=Nc1c(C)n(C)n(C)c1=O)=C(/O)c1ccccc1 reads > 50 µM

Sure, the documented TGI for CCCCCCCCOC(=O)c1cc([N+](=O)[O-])c(Sc2ncnc3nc[nH]c23)c([N+](=O)[O-])c1 is 22.5 µM

TGI recorded for this molecule, CN(C)c1ccc(/C=C/c2cc(-c3ccccc3)[n+](C)n2-c2ccccc2)cc1 , is 13.6 µM

Just so you know, measured TGI for CCOC(=O)C(Cc1ccc(N(CCCl)CCCl)cc1)NC(=O)CCCN1C(=O)CN=C(c2ccccc2)c2cc(Cl)ccc21 (stereo not drawn) came out at 19.1 µM

For CC[C@H](C)[C@H](NC(=O)[C@@]1(O)[C@H](O)[C@]2(CC)C=CCN3CC[C@@]4(c5cc(Br)c(OC)cc5N(C)[C@@H]14)[C@@H]32)C(=O)OC the molecule record lists TGI as > 100 µM

Noted for COc1cccc(/C=C\c2ccc(O)cc2)c1 : its TGI reads > 100 µM

GET /value?item= Cc1nnc(Sc2nc(C#N)c(C#N)nc2Sc2nnc(C)s2)s1 &field=TGI returns 49.7 µM

Recorded TGI (molecule O=C1c2ccccc2C(=O)c2c(NCCCN3CCOCC3)ccc(NCCCN3CCOCC3)c21 ): 13.6 µM

Entry CCCCOC(=O)c1cc(C(=CCC[C@H]2CC[C@@]3(C)[C@@H](CC[C@@H]4[C@@H]3CC[C@]3(C)[C@@H](C(C)CCCC(C)C)CC[C@@H]43)C2)c2cc(Cl)c(O)c(C(=O)OCCCC)c2)cc(Cl)c1O (stereo partly drawn) , TGI reported as > 50 µM

Given item N#Cc1c(N2CCN(c3ccc([N+](=O)[O-])cc3)CC2)[n+](=O)c2ccccc2n1[O-] , the value recorded as its TGI is > 100 µM

Reported TGI ( C/C(=N/Nc1nc(C)cc(=O)[nH]1)C(=O)O ) = > 100 µM

TGI reading for COC1=CC(=O)C2=C(C[C@@]3(C)C(=C2)C(CO)=CC[C@H]3O)C1=O : 37.4 µM

Measured TGI of c1ccc([P+](CCCCCC[P+](c2ccccc2)(c2ccccc2)c2ccccc2)(c2ccccc2)c2ccccc2)cc1 : 54.9 µM
